pIC50: −log10 of the molar value.
Measurement record for UniProt O60760; quantity recorded: pIC50.
Sequence (O60760 whole entry): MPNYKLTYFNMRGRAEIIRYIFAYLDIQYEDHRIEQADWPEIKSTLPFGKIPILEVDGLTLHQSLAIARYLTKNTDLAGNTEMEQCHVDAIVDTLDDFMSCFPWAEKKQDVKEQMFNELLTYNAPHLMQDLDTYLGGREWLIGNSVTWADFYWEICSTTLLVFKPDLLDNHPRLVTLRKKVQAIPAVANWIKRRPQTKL
REPORTED ENDPOINT: pIC50

(P) C[C@H](NC(=O)c1cnc(-c2ccccn2)nc1)c1cccc(-c2noc(C(C)(C)O)n2)c1
(Q) C[C@@H](NC(=O)c1cnc(-c2ccccn2)nc1)c1cccc(-c2noc(C(C)(C)O)n2)c1
In: Lab note: record which item had the higher pIC50, P or Q . Answer by quoting the chosen item's label.
Out: P
